- Test system: NCI-H522 lung
- experimental protocol: NCI-60 one-dose screen, 48 h (100 = growth as untreated, 0 = no growth, -100 = all killed)
- run conditions: 10 µM unless noted
The panel holds about 83,000 compounds, 20% with a hit somewhere; the sample as a whole holds those more often.
Use label 1 when the recorded growth is no lower than 40%; use label 0 when it is lower.

Study these solved cases before continuing.
- compound: "Nc1ccc(-n2c(=O)oc3ccc(Cl)cc3c2=O)c(Cl)c1"
  class: "label 0"
- compound: "Cc1ccc2c(n1)C(=O)C(Oc1ccc(Br)cc1)=CC2=O"
  class: "label 0"
- compound: "Cn1nc(C(C)(C)C)cc1NC(=O)Cc1ccc(/C=C2\\C(=O)Nc3ccccc32)cc1"
  class: "label 1"
- compound: "O=[N+]([O-])c1cc2c(ccc3occc32)o1"
  class: "label 0"
- compound: "CCCCNc1nc(NC(C)(C)C)nc(NC(C)(C)C)n1"
  class: "label 1"
- compound: "O=c1oc2ccc(Br)cc2c(=O)n1-c1ccc(I)cc1F"
  class: "label 0"
- compound: "O=c1oc2ccc(I)cc2c(=O)n1-c1ccc(F)cc1F"
  class: "label 0"
- compound: "CC/C(=C(\\CC)c1ccc(OCC[N+](C)(C)C)cc1)c1ccc(OC)cc1"
  class: "label 0"

Exercise: Decide: is the reported value of growth for CC1(O)COCCCCOc2c(CN)cccc2NC(=O)c2nc(cnc2N)-c2ccc(cc2)S(=O)(=O)C(C)(C)C1 (stereo unspecified) equal to or greater than 40%?
Key: label 0

Exercise: Decide: is the reported value of growth for CCOC(=O)c1c(Cl)c2c(n1Cc1ccccc1)-c1oncc1CCC2 equal to or greater than 40%?
Key: label 0

Exercise: Decide: is the reported value of growth for COc1cc(CNC(=O)c2ccsc2Nc2ccnc(C(F)(F)F)c2)ccc1O equal to or greater than 40%?
Key: label 1

Numbers sourced from PubChem BioAssay (NCI).
